This collection of values is drawn from ChEMBL document CHEMBL1961873.

Biological target: Tyrosine-protein kinase JAK3 (Homo sapiens) (UniProt P52333)
Sequence (P52333 whole entry): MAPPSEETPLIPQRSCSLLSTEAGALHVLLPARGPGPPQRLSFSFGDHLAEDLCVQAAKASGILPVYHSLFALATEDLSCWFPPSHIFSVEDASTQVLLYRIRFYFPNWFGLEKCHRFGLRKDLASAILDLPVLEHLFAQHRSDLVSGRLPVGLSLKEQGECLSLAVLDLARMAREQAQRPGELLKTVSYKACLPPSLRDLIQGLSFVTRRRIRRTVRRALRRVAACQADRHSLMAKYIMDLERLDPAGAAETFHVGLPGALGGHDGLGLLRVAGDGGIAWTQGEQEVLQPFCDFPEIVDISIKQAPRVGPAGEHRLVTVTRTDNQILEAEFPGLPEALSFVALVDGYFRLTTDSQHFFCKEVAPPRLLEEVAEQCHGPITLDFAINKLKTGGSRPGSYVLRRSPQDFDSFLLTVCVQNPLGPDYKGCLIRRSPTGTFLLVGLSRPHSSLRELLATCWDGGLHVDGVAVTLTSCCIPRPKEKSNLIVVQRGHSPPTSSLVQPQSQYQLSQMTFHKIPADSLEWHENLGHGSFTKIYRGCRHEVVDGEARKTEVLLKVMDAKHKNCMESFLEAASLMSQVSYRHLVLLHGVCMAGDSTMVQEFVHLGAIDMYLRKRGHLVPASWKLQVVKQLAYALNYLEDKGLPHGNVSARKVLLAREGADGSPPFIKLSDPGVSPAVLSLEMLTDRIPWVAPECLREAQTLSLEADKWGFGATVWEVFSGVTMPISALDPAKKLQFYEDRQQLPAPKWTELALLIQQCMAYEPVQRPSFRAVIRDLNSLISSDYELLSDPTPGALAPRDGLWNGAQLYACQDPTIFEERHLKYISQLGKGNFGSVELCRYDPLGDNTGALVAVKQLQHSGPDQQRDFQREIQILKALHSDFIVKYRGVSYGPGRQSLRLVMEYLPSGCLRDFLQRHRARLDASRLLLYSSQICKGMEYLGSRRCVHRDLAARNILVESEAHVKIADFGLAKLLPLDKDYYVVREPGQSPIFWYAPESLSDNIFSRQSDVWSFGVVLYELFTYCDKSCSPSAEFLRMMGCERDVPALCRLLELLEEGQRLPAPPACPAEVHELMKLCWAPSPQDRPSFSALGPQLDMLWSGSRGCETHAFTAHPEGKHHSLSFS
Details: at 1 µM
Description: GSK_PKIS: JAK3 mean inhibition at 1 uM [Nanosyn]
PARAMETER: inhibition (%)
Numbers only, in %.

* Cc1cc(-c2ccco2)cc(C)c1/C=C/c1cncc(-c2nn[nH]n2)c1 | 0.31
* NS(=O)(=O)c1ccc(N/C=C2\C(=O)Nc3ccc4ncsc4c32)cc1 | 54.4
* Fc1ccc(-c2ncn(C3CCNCC3)c2-c2ccnc(Oc3ccccc3)n2)cc1 | -5.72
* COc1cc(C=NNc2ncnc3c2cnn3Cc2ccccc2)ccc1O | 3.71

Here is another molecule to look at.
Reported inhibition ( `COc1cc2c(cc1Nc1nc(Nc3ccsc3C(N)=O)c3cc[nH]c3n1)N(C(=O)CN(C)C)CCC2` ) = -1.7

----------
Molecular target: Tyrosine-protein kinase BTK (Homo sapiens) (UniProt Q06187);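 further: values are averaged percent inhibition of BTK enzyme activity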
Sequence (Q06187 whole entry): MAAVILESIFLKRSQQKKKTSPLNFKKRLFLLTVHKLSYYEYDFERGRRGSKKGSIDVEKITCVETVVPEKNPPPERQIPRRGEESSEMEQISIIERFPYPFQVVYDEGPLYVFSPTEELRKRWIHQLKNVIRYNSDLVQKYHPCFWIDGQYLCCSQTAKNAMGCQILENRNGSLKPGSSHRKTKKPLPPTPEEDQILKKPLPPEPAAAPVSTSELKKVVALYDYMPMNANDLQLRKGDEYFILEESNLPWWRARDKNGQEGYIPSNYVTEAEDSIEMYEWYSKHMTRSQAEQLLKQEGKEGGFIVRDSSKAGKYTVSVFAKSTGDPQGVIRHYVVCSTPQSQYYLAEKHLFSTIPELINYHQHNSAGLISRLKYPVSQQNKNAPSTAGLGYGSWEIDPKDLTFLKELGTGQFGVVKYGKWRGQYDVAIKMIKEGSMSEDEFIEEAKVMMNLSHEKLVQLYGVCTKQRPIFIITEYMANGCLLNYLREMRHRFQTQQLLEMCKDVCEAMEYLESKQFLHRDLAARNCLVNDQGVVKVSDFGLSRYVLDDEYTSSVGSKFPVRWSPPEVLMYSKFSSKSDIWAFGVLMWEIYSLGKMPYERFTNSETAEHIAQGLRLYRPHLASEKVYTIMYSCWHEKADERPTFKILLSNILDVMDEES
Details: at 0.1 µM
Give inhibition for every item shown.
Answers are plain numbers, in %.

Take a look at these entries with their results.
- Cc1cc(-c2ccco2)cc(C)c1/C=C/c1cncc(-c2nn[nH]n2)c1: 0.68
- Nc1nonc1-c1nc2cnccc2n1C1CCCCC1: -0.64

Here is another molecule to look at.
Reported inhibition ( `CCn1c(-c2nonc2N)nc2c(C#CCN)ncc(OCCCN)c21` ) = 2.31

----------
Molecular target: Aurora kinase B (Homo sapiens);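 further: reported values are averaged percent inhibition of Aurora B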
Conditions: at 0.1 µM
Give inhibition for every item shown.
Numbers only, in %.

- NS(=O)(=O)c1ccc(-c2ccc3c(NC(=O)C4CC4)n[nH]c3c2)cc1: 3.22
- NS(=O)(=O)c1ccc(N/C=C2\C(=O)Nc3ccc4ncsc4c32)cc1: 19.6
- CCn1c(-c2nonc2N)nc2c(C#CC(C)(C)O)nc(O[C@@H](CN)c3ccccc3)cc21: 0.38
- CCn1c(-c2nonc2N)nc2c(C#CCN)ncc(OCCCN)c21: 4.99
- COc1cccc(COc2cc(-n3cnc4ccccc43)sc2C(N)=O)c1: -1.57

# return inhibition for each item in the list
1. COc1cc2c(cc1Nc1nc(Nc3ccsc3C(N)=O)c3cc[nH]c3n1)N(C(=O)CN(C)C)CCC2
2. COc1cccc(-n2ncc3c(N/N=C/c4ccncc4)ncnc32)c1

a:
[0.75, 7.94]

----------
Target: Discoidin domain-containing receptor 2 (Homo sapiens) (UniProt Q16832);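 further: reported figure is the mean inhibition of DDR2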
Sequence (Q16832 whole entry, the tested form may be a part): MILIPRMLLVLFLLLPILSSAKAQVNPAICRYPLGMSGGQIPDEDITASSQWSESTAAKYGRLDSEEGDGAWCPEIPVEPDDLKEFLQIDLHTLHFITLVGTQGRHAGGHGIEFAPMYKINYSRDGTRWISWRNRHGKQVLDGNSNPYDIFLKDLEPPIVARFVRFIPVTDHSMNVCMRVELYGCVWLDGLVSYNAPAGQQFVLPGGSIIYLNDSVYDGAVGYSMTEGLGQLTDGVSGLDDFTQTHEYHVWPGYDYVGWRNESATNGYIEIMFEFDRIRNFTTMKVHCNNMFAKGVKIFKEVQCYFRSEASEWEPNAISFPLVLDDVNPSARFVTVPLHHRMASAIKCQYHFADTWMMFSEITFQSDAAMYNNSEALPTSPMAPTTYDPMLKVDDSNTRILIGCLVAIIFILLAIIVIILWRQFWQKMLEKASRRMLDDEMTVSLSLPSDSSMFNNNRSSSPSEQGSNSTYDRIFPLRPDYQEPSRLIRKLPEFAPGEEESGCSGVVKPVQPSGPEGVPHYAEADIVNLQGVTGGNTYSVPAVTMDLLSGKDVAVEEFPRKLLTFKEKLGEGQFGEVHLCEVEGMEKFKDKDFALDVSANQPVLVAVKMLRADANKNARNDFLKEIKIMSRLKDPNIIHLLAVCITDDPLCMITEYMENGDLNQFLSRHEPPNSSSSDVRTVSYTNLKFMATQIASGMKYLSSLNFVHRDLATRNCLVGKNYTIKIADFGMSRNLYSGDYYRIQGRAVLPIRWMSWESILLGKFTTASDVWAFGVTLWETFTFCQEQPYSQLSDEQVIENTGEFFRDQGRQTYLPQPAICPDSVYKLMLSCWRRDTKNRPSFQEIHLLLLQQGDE
Settings: at 1 µM
PARAMETER: inhibition
# include the unit after the value

Take a look at these entries with their results.
• COc1cc(C=NNc2ncnc3c2cnn3Cc2ccccc2)ccc1O = 5.7%
• Nc1nonc1-c1nc2cnccc2n1C1CCCCC1 = 1.77%

# return inhibition for each item in the list
1. NS(=O)(=O)c1ccc(N/C=C2\C(=O)Nc3ccc4ncsc4c32)cc1
2. CCn1c(-c2nonc2N)nc2c(C#CC(C)(C)O)ncc(OC[C@@H]3CCCN3)c21

a:
1: 3.5%; 2: 2.67%

# return inhibition for each item in the list
1. CCn1c(-c2nonc2N)nc2c(C#CC(C)(C)O)nc(O[C@@H](CN)c3ccccc3)cc21
2. Fc1ccc(-c2ncn(C3CCNCC3)c2-c2ccnc(Oc3ccccc3)n2)cc1
3. CCn1c(-c2nonc2N)nc2c(C#CC(C)(C)O)ncc(OCC3CCNCC3)c21
4. COc1cccc(-n2ncc3c(N/N=C/c4ccncc4)ncnc32)c1

a:
1. 0.1%
2. 1.96%
3. 1.71%
4. 9.37%

----------
Target: Vascular endothelial growth factor receptor 3 (Homo sapiens)
Settings: at 0.1 µM
Description: GSK_PKIS: FLT4 mean inhibition at 0.1 uM [Nanosyn]
Give inhibition for every item shown.
Answers are plain numbers, in %.

- COc1cccc(-n2ncc3c(N/N=C/c4ccncc4)ncnc32)c1: 9.86

# return inhibition for each item in the list
1. CCn1c(-c2nonc2N)nc2c(C#CC(C)(C)O)ncc(OCC3CCNCC3)c21
2. NS(=O)(=O)c1ccc(-c2ccc3c(NC(=O)C4CC4)n[nH]c3c2)cc1

a:
1. -2.47
2. 0.96

# return inhibition for each item in the list
1. NC(=O)c1sc(-n2cnc3cc(C(F)(F)F)ccc32)cc1OCc1ccccc1Br
2. Fc1ccc(-c2ncn(C3CCNCC3)c2-c2ccnc(Oc3ccccc3)n2)cc1
3. COc1cc(C=NNc2ncnc3c2cnn3Cc2ccccc2)ccc1O
4. COc1cccc(COc2cc(-n3cnc4ccccc43)sc2C(N)=O)c1
5. CCn1c(-c2nonc2N)nc2c(C#CCN)ncc(OCCCN)c21
6. CCn1c(-c2nonc2N)nc2c(C#CC(C)(C)O)ncc(OC[C@@H]3CCCN3)c21
7. CCn1c(-c2nonc2N)nc2c(C#CC(C)(C)O)nc(O[C@@H](CN)c3ccccc3)cc21

a:
2.24
-7.44
0.12
-2.19
-2.4
4.88
58.4

----------
Molecular target: Glycogen synthase kinase-3 alpha (Homo sapiens);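 further: values are mean inhibition of GSK3A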
Settings: at 0.1 µM
PARAMETER: inhibition (%)
One number for each entry, in %.

Take a look at these entries with their results.
* NS(=O)(=O)c1ccc(-c2ccc3c(NC(=O)C4CC4)n[nH]c3c2)cc1 | 5.27
* COc1cc2c(cc1Nc1nc(Nc3ccsc3C(N)=O)c3cc[nH]c3n1)N(C(=O)CN(C)C)CCC2 | 1.22
* CCn1c(-c2nonc2N)nc2c(C#CC(C)(C)O)nc(O[C@@H](CN)c3ccccc3)cc21 | 52.7
* NS(=O)(=O)c1ccc(N/C=C2\C(=O)Nc3ccc4ncsc4c32)cc1 | 25.2
* NC(=O)c1sc(-n2cnc3cc(C(F)(F)F)ccc32)cc1OCc1ccccc1Br | 1.61
* COc1cccc(COc2cc(-n3cnc4ccccc43)sc2C(N)=O)c1 | 1.06
* Cc1cc(-c2ccco2)cc(C)c1/C=C/c1cncc(-c2nn[nH]n2)c1 | 0.36

Here is another compound to look at.
Reported inhibition ( `CCn1c(-c2nonc2N)nc2c(C#CCN)ncc(OCCCN)c21` ) = 0.52

----------
Give inhibition for every item shown.
Target: Mitogen-activated protein kinase kinase kinase kinase 4 (Homo sapiens);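 further: reported figure is an averaged inhibition value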
Settings: at 1 µM
Give bare numbers, in %.

Take a look at these entries with their results.
* Nc1nonc1-c1nc2cnccc2n1C1CCCCC1 | 46.2
* NS(=O)(=O)c1ccc(-c2ccc3c(NC(=O)C4CC4)n[nH]c3c2)cc1 | 5.23
* CCn1c(-c2nonc2N)nc2c(C#CC(C)(C)O)nc(O[C@@H](CN)c3ccccc3)cc21 | 20.4
* Cc1cc(-c2ccco2)cc(C)c1/C=C/c1cncc(-c2nn[nH]n2)c1 | -0.27
* COc1cc2c(cc1Nc1nc(Nc3ccsc3C(N)=O)c3cc[nH]c3n1)N(C(=O)CN(C)C)CCC2 | 14.9

Here is another compound to look at.
Reported inhibition ( `NS(=O)(=O)c1ccc(N/C=C2\C(=O)Nc3ccc4ncsc4c32)cc1` ) = 76.9

----------
Target: Mitogen-activated protein kinase 11 (Homo sapiens);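 further: reported values are averaged (mean) percent inhibition of p38beta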
Conditions: at 0.1 µM
Give inhibition for every item shown.
One number for each entry, in %.

Take a look at these entries with their results.
• COc1cccc(-n2ncc3c(N/N=C/c4ccncc4)ncnc32)c1 = 4.02
• CCn1c(-c2nonc2N)nc2c(C#CC(C)(C)O)ncc(OC[C@@H]3CCCN3)c21 = 1.96

# return inhibition for each item in the list
1. NC(=O)c1sc(-n2cnc3cc(C(F)(F)F)ccc32)cc1OCc1ccccc1Br
2. COc1cc2c(cc1Nc1nc(Nc3ccsc3C(N)=O)c3cc[nH]c3n1)N(C(=O)CN(C)C)CCC2
3. CCn1c(-c2nonc2N)nc2c(C#CCN)ncc(OCCCN)c21
4. NS(=O)(=O)c1ccc(-c2ccc3c(NC(=O)C4CC4)n[nH]c3c2)cc1
5. CCn1c(-c2nonc2N)nc2c(C#CC(C)(C)O)nc(O[C@@H](CN)c3ccccc3)cc21
6. NS(=O)(=O)c1ccc(N/C=C2\C(=O)Nc3ccc4ncsc4c32)cc1
7. Cc1cc(-c2ccco2)cc(C)c1/C=C/c1cncc(-c2nn[nH]n2)c1

a:
1: 4.23; 2: 2.67; 3: -2.25; 4: 2.34; 5: -1.84; 6: 4.61; 7: 3.14

----------
Molecular target: cAMP-dependent protein kinase catalytic subunit PRKX (Homo sapiens);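 further: each value is the mean percent inhibition of the kinase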
Conditions: at 1 µM
Give inhibition for every item shown.
Answers are plain numbers, in %.

• CCn1c(-c2nonc2N)nc2c(C#CCN)ncc(OCCCN)c21 = 18.9
• COc1cc(C=NNc2ncnc3c2cnn3Cc2ccccc2)ccc1O = 5.24
• CCn1c(-c2nonc2N)nc2c(C#CC(C)(C)O)nc(O[C@@H](CN)c3ccccc3)cc21 = 88.2
• Cc1cc(-c2ccco2)cc(C)c1/C=C/c1cncc(-c2nn[nH]n2)c1 = -0.08

Here is another molecule to look at.
Reported inhibition ( `NC(=O)c1sc(-n2cnc3cc(C(F)(F)F)ccc32)cc1OCc1ccccc1Br` ) = 1.17

----------
Target: Fibroblast growth factor receptor 3 (Homo sapiens) (UniProt P22607);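 further: each value is a mean percent inhibition of FGFR3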
Sequence (P22607 23-806 limits assumed): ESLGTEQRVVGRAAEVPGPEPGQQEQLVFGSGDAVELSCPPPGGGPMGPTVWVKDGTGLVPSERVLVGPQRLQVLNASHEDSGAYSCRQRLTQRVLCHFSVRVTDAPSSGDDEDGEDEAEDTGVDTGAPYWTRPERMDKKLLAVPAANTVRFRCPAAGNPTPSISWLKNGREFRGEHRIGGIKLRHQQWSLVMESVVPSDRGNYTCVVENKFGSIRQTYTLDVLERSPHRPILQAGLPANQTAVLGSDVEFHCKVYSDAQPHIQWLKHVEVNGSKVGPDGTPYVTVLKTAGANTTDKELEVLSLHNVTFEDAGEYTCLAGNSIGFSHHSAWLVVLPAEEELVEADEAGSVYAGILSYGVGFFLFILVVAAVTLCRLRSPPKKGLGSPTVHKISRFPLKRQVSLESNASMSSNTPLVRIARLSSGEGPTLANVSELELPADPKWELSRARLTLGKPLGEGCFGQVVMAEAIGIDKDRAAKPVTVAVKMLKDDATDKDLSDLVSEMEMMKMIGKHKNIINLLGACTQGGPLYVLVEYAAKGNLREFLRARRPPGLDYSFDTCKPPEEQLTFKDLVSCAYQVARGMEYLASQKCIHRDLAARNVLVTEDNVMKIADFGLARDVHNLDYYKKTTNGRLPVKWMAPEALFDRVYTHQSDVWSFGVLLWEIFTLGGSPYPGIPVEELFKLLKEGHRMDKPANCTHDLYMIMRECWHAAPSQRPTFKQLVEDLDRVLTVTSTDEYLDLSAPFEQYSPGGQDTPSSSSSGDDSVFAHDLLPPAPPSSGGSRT
Details: at 0.1 µM
PARAMETER: inhibition
# include the unit after the value

Take a look at these entries with their results.
* CCn1c(-c2nonc2N)nc2c(C#CC(C)(C)O)ncc(OC[C@@H]3CCCN3)c21 | -3.24%
* CCn1c(-c2nonc2N)nc2c(C#CC(C)(C)O)ncc(OCC3CCNCC3)c21 | 1.17%
* NS(=O)(=O)c1ccc(N/C=C2\C(=O)Nc3ccc4ncsc4c32)cc1 | 17.1%
* CCn1c(-c2nonc2N)nc2c(C#CC(C)(C)O)nc(O[C@@H](CN)c3ccccc3)cc21 | -1.56%
* NS(=O)(=O)c1ccc(-c2ccc3c(NC(=O)C4CC4)n[nH]c3c2)cc1 | 3.47%
* COc1cccc(-n2ncc3c(N/N=C/c4ccncc4)ncnc32)c1 | 7.39%

# return inhibition for each item in the list
1. Fc1ccc(-c2ncn(C3CCNCC3)c2-c2ccnc(Oc3ccccc3)n2)cc1
2. COc1cccc(COc2cc(-n3cnc4ccccc43)sc2C(N)=O)c1

a:
["-1.57%", "-1.31%"]
